- protocol-notes: yeast display, Sf9 membrane polyspecificity reagent, FACS + sequencing; frameworks hold sequencing errors
assay-endpoint: polyreactivity (PSR sort gate)

QVQLVESGGGLVQAGGSLRLSCAASGNNFETNAMGWYRQAPGKERELVAAISASGGSTYYADSVKGRFTISRDYAKNTVYLQMNSLKPEDTAVYYCAARRAVRLYYWGQGTQVTVSS    high polyreactivity
QVQLVESGGGLVQAGGSLRLSCAASGSTLYSYAMGWYRQAPGKERELVAAIRRDSGRTYYADSVKGRFTISRDNAKNTVYLQMNSLKPEDTAVYYCAVRKQYSGRYYRAYDYWGQGTQVTVSS    high polyreactivity
QVQLVESGGGLVQAGGSLRLSCAASGFYYYVMVWYRQAPGKERELVAGITASGGSTYADSVKGRFTISRDNAMYTVYLQMNSLKPEDTAVYYCAAGFVGTNYTLHGFSYEYWGQGTQVTVSS    low polyreactivity
QVQLVESGGGLVQAGGSLRLSCAASGRIFARNAMGWYIQAPWKERELVAAISWTGDSTYYADSVKGRFTISRDNAKNTVYLQMNSLKPEDTAVYYCNALVYHTKGDYGYWGQGTQVTVSS    low polyreactivity
QVQLVESGGGLVQAGGSLRLSCAASGRTFDLNAMGWYRQAPGKERELVAGISSSGGRTYYADSVKGRFTISRDNAKNTVYLQMNSLKPEDTAVYYCAKVYPSYVLRKYDYWGQGTQVTVSS    high polyreactivity
QVQLVESGGGLVQAGGSLRLSCAASGSTFRYNAMGWYRQAPGKERELVAVISWGGGRTYYADSVKGRFTISRDNAKNTVYLQMNSLKPEDTAVYYCNVYFGRIVARDYGYWGQGTQVTVSS    high polyreactivity
QVQLVESGGGLVQAGGSLRLSCAASGTYTNAMGWYRQAPGKERELVAAITSSGGSTYYADSVKGRFTISRDNAKNTVYLQMNSLKPEDTAVYYCAKPGVYEVSYTYGYWGQGTQVTVSS    low polyreactivity
QVQLVESGGGLVQAGGSLRLSCAASGLIFRTYTMGWYRQAPGKERELVATITRRGGTTYYADSVKGRFTISRDNAKNTVYLQMKSLKPEDTAVYYCAKSPYYTWKYDYWGQGTQVTVSS    high polyreactivity
QVKLVESGGGLVQAGGSLRLSSAASGSTFDSNAMGWYRQEPGKERELVAAITRGGSTNYADSVKGRFTISRDNAKNTVYLQMNSLKPEDTAVYYCAAASETLGYATYGSGYDYWGQGTQVTVSS    low polyreactivity
QVQLVESGGGLVQAGGSLRLRCAASGSTFYIYAMGWYRPAPGKERELVARISGSGGSTYYADSVKGRFTISRDNAKNTVYLQMNSLKPEDTSVYSCAAQRRVVGRHGLSLIRYDYWGQGTQVTVSS    low polyreactivity
QVQLVESGVGLVQAGGSLRLICAASGSTFAYNDMGWYRQAPGKERELVAAINGGGGSTYYGDSVKGRFTISRDNAKNTVYLHMNSLKPEVTAVYYCAKGEWSYVDSFGPYYDLVYWGQGTQVTVSS    low polyreactivity

* * *

- protocol-notes: yeast display, Sf9 membrane polyspecificity reagent, FACS + sequencing; frameworks hold sequencing errors
assay-endpoint: polyreactivity (PSR sort gate)

QVQLVESGGGLVQAGGSLRLSCAASGFTFRGYVMGGYRQAPGKERELVAAITNIGTSTYYAHSVKGRFTISRDNAKNTVYVQMNSLKPEDTGVFFCAARLSTKFYYWGQVTQVTVSS    low polyreactivity
QVQLVESGGGLDQAGGSLRLSCAASGSTLVYNDMGWYRQAPGIEREFVAAIRSNDGSTYYADSVKGRFTISGDNAKNTVYLQMNSLKPEDTAGYYCAVVYGYPYLRGYVYGFNYWGQGTQVTVSS    low polyreactivity
QVQLVESGGGLVQAGGSLRLSCAASGRTFYWNPMGWYRQAPGKERELVAAITRNGGSTYYADSVKGRFTISRDNAKNTVYLQMNSLKPEDTAVYYCAARKRYGAGYDYWGQGTQVTVSS    high polyreactivity
QVQLVESVGGLVLAGGSLRLSCAASGSIFIVNAMGWYRQAPGKERELVAAISGRGGNTNYADSVKGRFTISRDNAKNTVYLQMNSLKPEDTAVYYCAARHTRDYDYWGQGTQVTVSS    low polyreactivity
QVQLVESGGGIVQAGGSLRLSCAASGFTFDPYAMGWYRQAPGKERELVAATSWSGGSTYYADSVKGRFTISRDNAKNTVYLQMNSLKPEDTAVYYCAAEWYNSAYYEYDYWGQGTQVTVSS    high polyreactivity
